# TARGET UNDER TEST: Heat shock factor protein 1 (Mus musculus, UniProt P38532)
# Sequence (P38532 whole entry): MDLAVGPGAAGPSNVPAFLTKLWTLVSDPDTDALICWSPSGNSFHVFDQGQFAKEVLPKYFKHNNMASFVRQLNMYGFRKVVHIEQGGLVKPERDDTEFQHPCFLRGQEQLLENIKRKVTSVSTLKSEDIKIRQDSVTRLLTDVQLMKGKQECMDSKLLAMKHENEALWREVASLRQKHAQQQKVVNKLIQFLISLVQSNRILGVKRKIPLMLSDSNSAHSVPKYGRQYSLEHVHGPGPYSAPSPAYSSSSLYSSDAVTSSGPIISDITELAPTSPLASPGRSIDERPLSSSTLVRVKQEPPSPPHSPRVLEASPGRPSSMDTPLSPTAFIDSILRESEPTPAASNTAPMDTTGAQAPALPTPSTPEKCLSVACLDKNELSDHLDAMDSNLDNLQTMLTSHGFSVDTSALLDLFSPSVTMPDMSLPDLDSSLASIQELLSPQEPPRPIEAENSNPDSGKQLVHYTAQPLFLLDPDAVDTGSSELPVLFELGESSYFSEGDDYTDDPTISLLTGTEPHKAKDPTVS
# TEST SUMMARY: decrease of HSF1-responsive luciferase luminescence – cell-based, NIH3T3, dose retest, confirmation (AID 2382);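 further: NIH3T3 fibroblasts with HSF1-driven luciferase reporter stressed by proteasome inhibitor MG132; luminescence from HSF1-driven luciferase expression after 8 hours of MG132 stress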
# Assay type: functional
Activity calls are given as the source filed them.
EXPERIMENTAL READOUT: EC50

- COMPOUND: "c1ccc(Cc2nc3ccccc3o2)cc1"
  EC50: "> 195 µM (not active)"
- COMPOUND: "O=C(N/N=C/c1ccc(Br)o1)c1ccc2c(c1)OCCO2"
  EC50: "> 195 µM (not active)"
- COMPOUND: "CCOc1ccc(NCc2nnc(SCC(=O)Nc3cc(C)on3)n2-c2ccc(OC)cc2)cc1"
  EC50: "> 195 µM (not active)"
- COMPOUND: "COc1cccc(-c2csc(NC(=O)Nc3ccccc3)n2)c1"
  EC50: "> 195 µM (not active)"

Problem: Entry CC(C)(C)c1ccc(Cn2c(=O)cnc3ccccc32)cc1 : reported EC50 = ?
Solution: 2.27 µM (active)

Problem: Further, for Cc1cc(/C=C2\Cc3ccccc3C2=O)c(C)n1-c1ccccc1 ?
Solution: < 0.16 µM (active)

Problem: Further, for O=C(Nc1ccc(F)cc1)c1ccc(O)nn1 ?
Solution: > 195 µM (not active)

Problem: Further, for Nc1ccc2oc(C3CCCCC3)nc2c1 ?
Solution: > 195 µM (not active)

====

# TARGET UNDER TEST: Large T antigen (Simian virus 40, UniProt P03070);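 further: Confirmatory-stage PubChem screen for compounds that inhibit SV40 T antigen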
# Sequence (P03070 whole entry): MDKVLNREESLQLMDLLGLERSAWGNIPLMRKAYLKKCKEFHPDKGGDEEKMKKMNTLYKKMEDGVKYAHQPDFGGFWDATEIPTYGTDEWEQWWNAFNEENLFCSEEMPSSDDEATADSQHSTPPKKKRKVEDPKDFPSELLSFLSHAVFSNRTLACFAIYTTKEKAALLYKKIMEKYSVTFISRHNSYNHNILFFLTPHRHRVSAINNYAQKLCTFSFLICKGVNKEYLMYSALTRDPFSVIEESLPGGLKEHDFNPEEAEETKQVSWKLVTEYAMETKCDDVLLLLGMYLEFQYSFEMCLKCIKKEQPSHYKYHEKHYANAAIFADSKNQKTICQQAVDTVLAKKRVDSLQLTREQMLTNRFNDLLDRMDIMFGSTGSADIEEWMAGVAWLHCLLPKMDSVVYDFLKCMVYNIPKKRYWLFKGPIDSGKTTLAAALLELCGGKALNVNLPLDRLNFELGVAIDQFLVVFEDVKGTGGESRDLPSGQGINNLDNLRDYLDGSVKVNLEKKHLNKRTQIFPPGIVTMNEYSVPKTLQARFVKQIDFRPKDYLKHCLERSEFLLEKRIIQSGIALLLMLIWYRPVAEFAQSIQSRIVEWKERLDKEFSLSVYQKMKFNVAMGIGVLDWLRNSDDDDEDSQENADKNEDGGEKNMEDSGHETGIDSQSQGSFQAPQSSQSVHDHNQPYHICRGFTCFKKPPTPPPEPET
# Type: functional, Betapolyomavirus macacae
Calls of active or inactive are those of the source.
The reader will find reported IC50 values listed item by item below.

Problem: Entry C=CCN1C(=O)/C(=C/c2cc(C)n(-c3cccnc3)c2C)C(=O)NC1=S : reported IC50 = ?
Solution: 66.7 µM (active)

Problem: Further, for Cc1ccc(/N=c2\oc3cc(O)ccc3cc2C(N)=O)cc1 ?
Solution: 33.8 µM (active)

Problem: Further, for Cc1cc(SCC(=O)N/N=C/c2ccc(O)c(O)c2)nc2ccccc12 ?
Solution: 6.59 µM (active)

====

# TEST SUMMARY: blockers of HIV-1 envelope-mediated cell-cell fusion – cherry-pick, dose response (AID 652057)
# Type: functional, cell-based
The source made the active and inactive calls.
EXPERIMENTAL READOUT: AC50

Problem: Entry Cc1cc(Cl)ccc1OCC(=O)N1CCCN(C(=O)COc2ccc(Cl)cc2C)CC1 : reported AC50 = ?
Solution: 1.98 µM (active)

Problem: Further, for C[C@H]1CN([C@@H](C)CO)C(=O)Cc2cc(N(C)C)ccc2O[C@H]1CN(C)Cc1ccc(Cl)c(Cl)c1 ?
Solution: 40.2 µM (active)

Problem: Further, for Cc1ccc(C(C(=O)NC2CCCCC2)N(C(=O)c2csnn2)C2CCCC2)o1 (centres undefined) ?
Solution: 14.1 µM (active)

Problem: Further, for O=C1NCCN(Cc2cccc(Oc3ccccc3)c2)C1CC(=O)N1CCCCC1 (centres undefined) ?
Solution: 3.76 µM (active)

Origin of values: ChEMBL document CHEMBL1201862
